- Test system: Crude diglycosidase
- run-description: Examination of pH in the conversion into isoflavone aglycons by diglycosidase using soybean materials
- Assay type: biochemical, Penicillium multicolor IAM7153
- measurement-parameters: pH2.7; heat treatment of enzyme: no; reaction time 3 h
For each record, write down the corresponding Decomposition efficiency of glycitin family in concentrated soybean protein.
API: value field is a number in %; no unit string.

So what's the measured Decomposition efficiency of glycitin family in concentrated soybean protein for this one? `COc1cc2c(=O)c(-c3ccc(O)cc3)coc2cc1O`
25.7

Note, next up: `COc1cc2c(=O)c(-c3ccc(O)cc3)coc2cc1O[C@@H]1O[C@H](CO)[C@@H](O)[C@H](O)[C@H]1O`
37.2

Note, next up: `COc1cc2c(=O)c(-c3ccc(O)cc3)coc2cc1O[C@@H]1O[C@H](COC(C)=O)[C@@H](O)[C@H](O)[C@H]1O`
36.5

Note, next up: `COc1cc2c(=O)c(-c3ccc(O)cc3)coc2cc1O[C@@H]1O[C@H](COC(=O)CC(=O)O)[C@@H](O)[C@H](O)[C@H]1O`
0.5
